system: DMS 114 tumor spheroids, viability % test/control; assay: Anticancer human tumor DMS 114 cell line growth inhibition; settings: second compound 94.9 pM; first compound 10 µM; hits give low values; spheroids with HUVEC and MSC;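 further: luminescence used as a proxy for viable cells; spheroids exposed to compounds for 7 days before read-out; 100% = DMSO vehicle control viability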
metric name: viability, T/C (%)
# value in %; strip the unit string

compound	unit string	obs value
COc1cc(C)[nH]c(=O)c1CN1CCc2c(Cl)cc(C(OC)C3COC3)c(Cl)c2C1=O (centres undefined) + COc1cc2c(cc1O)CCNC21CSC2c3c(OC(C)=O)c(C)c4c(c3C(COC1=O)N1C(O)C3Cc5cc(C)c(OC)c(O)c5C(C21)N3C)OCO4	%	56
Cc1cc(C)c(CNC(=O)c2cc(-c3ccc(CN4CCOCC4)cc3)cc3c2cnn3C2CCCC2)c(=O)[nH]1 + COc1cc2c(cc1O)CCNC21CSC2c3c(OC(C)=O)c(C)c4c(c3C(COC1=O)N1C(O)C3Cc5cc(C)c(OC)c(O)c5C(C21)N3C)OCO4	%	52.1
COc1ccc([C@@H](O)c2cc(-c3ncnc4cc(N5CCOCC5)ccc34)c(F)cc2Cl)nn1 + COc1cc2c(cc1O)CCNC21CSC2c3c(OC(C)=O)c(C)c4c(c3C(COC1=O)N1C(O)C3Cc5cc(C)c(OC)c(O)c5C(C21)N3C)OCO4	%	13.3

Record CC(C)n1c(=O)n(C)c2cnc3cc(F)c(-c4ccc(OCCCN5CCCCC5)nc4)cc3c21 + COc1cc2c(cc1O)CCNC21CSC2c3c(OC(C)=O)c(C)c4c(c3C(COC1=O)N1C(O)C3Cc5cc(C)c(OC)c(O)c5C(C21)N3C)OCO4 . Reported viability, T/C: 16.5

---

system: DMS 114 tumor spheroids, viability % test/control; assay: Anticancer human tumor DMS 114 cell line growth inhibition; conditions: second compound 0.03 µM; first compound 10 µM; hits give low values; spheroids with HUVEC and MSC;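 further: luminescence used as a proxy for viable cells; spheroids exposed to compounds for 7 days before read-out; 100% = DMSO vehicle control viability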
metric name: viability, T/C (%)
# value in %; strip the unit string

Reference set (2 entries):
compound	obs value
Cc1cc(C)c(CNC(=O)c2cc(-c3ccc(CN4CCOCC4)cc3)cc3c2cnn3C2CCCC2)c(=O)[nH]1 + CC[C@@]1(O)C(=O)OCc2c1cc1n(c2=O)Cc2cc3c(CN(C)C)c(O)ccc3nc2-1	30.7
CC1COCCN1c1cc(-c2ccnn2C)c2ccnc(-c3ccn[nH]3)c2n1 (stereo not drawn) + CC[C@@]1(O)C(=O)OCc2c1cc1n(c2=O)Cc2cc3c(CN(C)C)c(O)ccc3nc2-1	7.49

Okay, now this compound:
Record CC(C)n1c(=O)n(C)c2cnc3cc(F)c(-c4ccc(OCCCN5CCCCC5)nc4)cc3c21 + CC[C@@]1(O)C(=O)OCc2c1cc1n(c2=O)Cc2cc3c(CN(C)C)c(O)ccc3nc2-1 . Reported viability, T/C: 9.25

---

system: DMS 114 tumor spheroids, viability % test/control; assay: Anticancer human tumor DMS 114 cell line growth inhibition; conditions: second compound 0.03 µM; first compound 0.949 µM; spheroids with HUVEC and MSC; active = viability on the fitted dose curve at most 10% of control; inactive = the rest;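 further: luminescence used as a proxy for viable cells; spheroids exposed to compounds for 7 days before read-out; 100% = DMSO vehicle control viability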
Assign a class; possible classes are t (active), f (inactive)

Field: example entries. Status: answers known.
molecule	qualitative label
O=C(c1cc(Cc2n[nH]c(=O)c3ccccc23)ccc1F)N1CCN(C(=O)C2CC2)CC1 + CC[C@@]1(O)C(=O)OCc2c1cc1n(c2=O)Cc2cc3c(CN(C)C)c(O)ccc3nc2-1	f
Cn1ncnc1[C@H]1c2n[nH]c(=O)c3cc(F)cc(c23)N[C@@H]1c1ccc(F)cc1 + CC[C@@]1(O)C(=O)OCc2c1cc1n(c2=O)Cc2cc3c(CN(C)C)c(O)ccc3nc2-1	t
Cc1sc2c(c1C)C(c1ccc(Cl)cc1)=NC(CC(=O)Nc1ccc(O)cc1)c1nnc(C)n1-2 (centres undefined) + CC[C@@]1(O)C(=O)OCc2c1cc1n(c2=O)Cc2cc3c(CN(C)C)c(O)ccc3nc2-1	t

Moving on to the next molecule.
Data request: For CNCc1ccc(-c2cc(-c3nc(-c4ccc(S(=O)(=O)C(C)C)cc4)cnc3N)on2)cc1 + CC[C@@]1(O)C(=O)OCc2c1cc1n(c2=O)Cc2cc3c(CN(C)C)c(O)ccc3nc2-1 , what call appears in the results of this test?
Data returned: t
